Assay: Oral bioavailability in Rats
Assay type: ADME, organism-based
Settings: rat, in vivo
property-name: bioavailability (%)
# unit: % | format: bare number

Specify bioavailability for `CCCCOCCOc1nc(-c2ccc(C(=O)O)c(F)c2)sc1C` and stop.
52

====

Experiment: Distribution coefficient of the compound, log D
Type: physicochemical
Details: octanol/water
property-name: logD
Lab note: write the figure by itself, no unit.

Using the record for `CCCCOCCOc1nc(-c2ccc(C(=O)O)c(F)c2)sc1C` , state its measured logD.
1.4

====

Biological target: UniProtKB P10826
Sequence (P10826 whole entry): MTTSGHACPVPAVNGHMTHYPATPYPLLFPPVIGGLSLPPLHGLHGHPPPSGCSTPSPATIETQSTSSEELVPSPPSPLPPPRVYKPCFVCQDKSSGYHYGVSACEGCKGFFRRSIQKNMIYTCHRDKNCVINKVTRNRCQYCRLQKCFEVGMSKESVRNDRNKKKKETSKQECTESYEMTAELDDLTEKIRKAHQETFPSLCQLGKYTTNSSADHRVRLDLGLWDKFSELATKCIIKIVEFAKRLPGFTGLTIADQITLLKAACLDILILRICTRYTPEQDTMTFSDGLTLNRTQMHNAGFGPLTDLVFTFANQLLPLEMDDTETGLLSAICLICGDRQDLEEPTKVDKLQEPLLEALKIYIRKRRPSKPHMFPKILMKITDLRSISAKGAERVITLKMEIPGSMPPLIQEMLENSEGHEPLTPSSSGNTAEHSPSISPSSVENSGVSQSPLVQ
Experiment: Transcriptional activity against RARbeta1
Assay type: functional
Would you mind telling me the reported EC50 of each entry?

Identify measured EC50 associated with `CCCCCCCCCc1ccc(-c2ccc(C(=O)O)cc2)cc1`
0.316 µM

Identify the reported EC50 for the following entry. `CCCCCCc1ccc(-c2ccc(C(=O)O)cc2)cc1`
> 10 µM

Write down EC50 measured for item `CCCCc1ccc(-c2ccc(C(=O)O)cc2)cc1`
> 10 µM

Quote EC50 reported for `CCCCCCCc1ccc(-c2ccc(C(=O)O)cc2)cc1` please.
> 10 µM

State its EC50: `CCCCCc1ccc(-c2ccc(C(=O)O)cc2)cc1`
> 10 µM

Tell me EC50 reported for `CCCCCCCCc1ccc(-c2ccc(C(=O)O)cc2)cc1`
> 10 µM

Source: ChEMBL document CHEMBL1141226
